Test system: MCF7 breast cancer cells
PROCEDURE_TEXT: Activity Assay 6: CyQuant cell growth inhibition, MCF7
Assay type: cell-based
RUN_CONDITIONS: Homo sapiens, 144 h, MCF7, 6 days
pIC50: −log10 of the molar value.
RESULT_TYPE: pIC50

Field: example entries. Status: answers known.
compound="CC(C)[C@H]1NC(=O)[C@H]2CSSCC/C=C/[C@H](CC(=O)N[C@H](CCC(=O)OC(C)(C)C)C(=O)N2)OC(=O)CNC1=O [Compound 9F]" numeric_value=8.80
compound="CC(C)[C@H]1NC(=O)C[C@H]2/C=C/CCSSC[C@@H](NC1=O)C(=O)N[C@H](C(C)C)C(=O)NCC(=O)O2 [Compound 9C]" numeric_value=8.28
compound="CC(C)[C@H]1NC(=O)[C@H]2CSSCC/C=C/[C@H](CC(=O)N[C@H](C)C(=O)N2)OC(=O)[C@@H](C)NC1=O [Compound 9E]" numeric_value=6.93

[P] CC(C)[C@H]1NC(=O)[C@H]2CSSCC/C=C/[C@H](CC(=O)N[C@H](CCC(=O)O)C(=O)N2)OC(=O)CNC1=O [Compound 10F]
[Q] CC(C)[C@H]1NC(=O)[C@H]2CSSCC/C=C/[C@H](CC(=O)N[C@H](Cc3ccccc3)C(=O)N2)OC(=O)CNC1=O [Compound 9B]
[R] CC(C)[C@H]1NC(=O)[C@H]2CSSCC/C=C/[C@H](CC(=O)N[C@H](C)C(=O)N2)OC(=O)CNC1=O [Compound 9A]
Rank descending by pIC50. Please write the labels in the order that was asked for.
Q, R, P

Cited source: patent US7977304B2
